testProtocol: Components of the Cytosolic LPS Sensing Pathway: Gene Identification via Genome-wide siRNA Screen;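 note: robust z of the log signal after scaling to non-targeting control siRNA wells of the plate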
experimentalConditions: RAW264.7 macrophages, IL-1a HTRF, actives lie on both sides, screened at 100 nM (by protocol), cells primed 5 h with Pam3CSK4 first
Hit rate of the full screen: of about 53,000 sequences, about 3,700 (7%) were called active. Only a selection was taken, and actives are over-represented in it overall.
quantityMeasured: z-score
The answer should be written as a number, with no unit following it.

As a guide, the following entries are already answered.
>>> assayresult("GGUGCUAUGGAAAAUCAAGTT against Dcaf1")
-1.04
>>> assayresult("GCACGAGAGUCUGAAGGAUTT against Mns1")
-0.2
>>> assayresult("GCCUGAAAUCAACUCCACCTT against F2")
2.21
>>> assayresult("CCAACAAAAACGUACUUUGTT against 9530091C08Rik")
1.24
>>> assayresult("GGAGUUUUGAAUAAACCAATT against Tmc7")
-0.2
>>> assayresult("GCCUGUCUCCUCAAUGCUUTT against Gm9903")
-0.319
>>> assayresult("GGUGACACAGGAGAAGAAGTT against Colec10")
-0.00926
>>> assayresult("GGAGUUCACCAGCUACCAATT against Myoz3")
-0.537

Sample GGAUGAACAACUCUAGGCCTT against Mafk — what was its z-score?
-0.736

Quick one: CGUUGCUGACUGCUAUGAATT against Tmprss13
-1.22

Quick one: GGACCUGGUAUCUCUAUAUTT against Rasgrp4
-0.807

Quick one: GCCUAUUCUAUCGAUAACCTT against Cdh23
0.801

Quick one: GGGAAAAUAUCUCAUAUCATT against Colec10
-0.944

Quick one: GGUUUUCUACAGGAGAGACTT against 9430015G10Rik
1.33

Every entry's value here was drawn from PubChem BioAssay AID1508600.
